So I've got a bunch of molecules here, and I need their pIC50 values.
Target: GDP-loaded KRAS G12D (Homo sapiens, UniProt P01116, G12D)
Sequence (P01116 1-188 isoform P01116-2 G12D): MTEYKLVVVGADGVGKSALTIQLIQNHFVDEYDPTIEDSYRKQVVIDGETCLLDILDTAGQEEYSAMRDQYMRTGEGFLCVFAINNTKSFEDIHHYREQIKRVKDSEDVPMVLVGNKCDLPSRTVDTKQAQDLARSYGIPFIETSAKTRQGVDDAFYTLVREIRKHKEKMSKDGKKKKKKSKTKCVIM
Test: KRAS G12D Probe Displacement Assay
Type: binding
Conditions: KRAS G12D 0.5 nM, biotinylated probe 2 4 nM; Table 6 letters; read-out: KRAS G12D Probe Displacement Assay IC50 (class)
pIC50: −log10 of the molar value.

Worked examples follow.
molecule="Nc1nc2c(-c3c(C(F)(F)F)cc4c(N5[C@@H]6CC[C@H]5C(NCCC(F)F)C6)nc(OC[C@@]56CCCN5C[C@H](F)C6)nc4c3F)ccc(F)c2s1 (stereo partly shown) [Example E95]" parameter_measured=pIC50 endpoint_value="> 7.30"
molecule="N#Cc1c(N)sc2c(F)ccc(-c3c(C(F)(F)F)cc4c(N5CC6CCC(C5)N6)nc(OCC56COC(C5)C6)nc4c3F)c12 [Example E236]" parameter_measured=pIC50 endpoint_value="> 7.30"
molecule="Cc1cc(N)nc(-c2c(Cl)cc3c(N4CC5CCC(C4)N5)nc(OCC4C5COCC54)nc3c2F)c1C(F)(F)F (stereo not shown) [Example E231]" parameter_measured=pIC50 endpoint_value="6.00 to 7.00"
molecule="CN1CCCC1(CC#N)COc1nc(N2CC3CCC(C2)N3)c2cc(C(F)(F)F)c(-c3ccc(F)c4sc(N)nc34)c(F)c2n1 (stereo not shown) [Example E121]" parameter_measured=pIC50 endpoint_value="> 7.30"
molecule="Nc1nc2c(-c3c(C(F)(F)F)cc4c(N5CC6CCC(C5)N6)nc(OCC(O)CO)nc4c3F)ccc(F)c2s1 (stereo not shown) [Example E141]" parameter_measured=pIC50 endpoint_value="> 7.30"

The following molecules each have a reported value; give each one's pIC50.
1. Cc1nc(N)nc(-c2c(Cl)cc3c(N4CC5CCC(C4)N5)nc(OC[C@@]45CCCN4C[C@H](F)C5)nc3c2F)c1C(F)(F)F [Example E112]
2. CO[C@@H]1CC[C@H]1COc1nc(N2CC3CCC(C2)N3)c2cc(C(F)(F)F)c(-c3ccc(F)c4sc(N)nc34)c(F)c2n1 [Example E168]
3. COC1CC(Oc2nc(N3CC4CCC(C3)N4)c3cc(C(F)(F)F)c(-c4ccc(F)c5sc(N)nc45)c(F)c3n2)C1 (stereo not shown) [Example E167]
4. COC1(COc2nc(N3CC4CCC(C3)N4)c3cc(C(F)(F)F)c(-c4ccc(F)c5sc(N)nc45)c(F)c3n2)COC1 [Example E176]
5. Nc1nc2c(-c3c(C(F)(F)F)cc4c(N5C6CNCC5COC6)nc(OC[C@@]56CCCN5C[C@H](F)C6)nc4c3F)ccc(F)c2s1 [Example E98]
6. Cc1cc(N)nc(-c2c(Cl)cc3c(N4CC5CCC(C4)N5)nc(OCC4(C)CNC(=O)C4)nc3c2F)c1C(F)(F)F (stereo not shown) [Example E208]
7. N#CC1(F)CC(Oc2nc(N3CC4CCC(C3)N4)c3cc(C(F)(F)F)c(-c4ccc(F)c5sc(N)nc45)c(F)c3n2)C1 (stereo not shown) [Example E151]

> 7.30
> 7.30
7.00 to 7.30
> 7.30
> 7.30
> 7.30
> 7.30

Data request, read-out pIC50, for Cc1cc(N)nc(-c2cc3nc(OC[C@@]45CCCN4C[C@H](F)C5)nc(N4CC5CCC(C4)N5)c3cc2Cl)c1C(F)(F)F [Example E117] > 7.30

###

So I've got a bunch of molecules here, and I need their pIC50 values.
Target: KRAS G12D:SOS1 (Homo sapiens, UniProt P01116, G12D)
Sequence (P01116 1-188 isoform P01116-2 G12D): as the sequence (P01116 1-188 isoform P01116-2 G12D) above
Assay: KRAS G12D:SOS1 GDP TR-FRET assay
Settings: GST-KRAS G12D 37.5 nM, GDP 10 μM, His-SOS1 18 nM
Numbers only, as −log10 of the molar value.

Worked examples follow.
molecule="C[C@@H](CN1CCC(F)C1)Oc1nc(N2C3CCC2CNC3)c2cc(Cl)c(-c3ccc(F)c4sc(N)nc34)c(F)c2n1 (stereo partly drawn) [Example E43]" endpoint_value=7.77
molecule="C[C@@H](CN1CCCCC1)Oc1nc(N2CC3CC(C2)N3)c2cc(Cl)c(-c3ccc(F)c4sc(N)nc34)c(F)c2n1 [Example E12]" endpoint_value=8.46
molecule="CN1C[C@H](O)C[C@H]1COc1nc(N2CC3CCC(C2)N3)c2cc(Cl)c(-c3ccc(F)c4sc(N)nc34)c(F)c2n1 [Example E28]" endpoint_value=8.52

The following molecules each have a reported value; give each one's pIC50.
1. CC(CN1CCCCC1)Oc1nc(N2C3CCC2CNC3)c2cc(Cl)c(-c3ccc(F)c4sc(N)nc34)c(F)c2n1 (stereo not drawn) [Example E8]
2. Cc1cc(N)nc(-c2c(Cl)cc3c(N4CC5CCC(C4)N5)nc(OC[C@@]45CCCN4C[C@H](F)C5)nc3c2F)c1C(F)(F)F [Example E49]
3. CC1CCCC(C)N1C[C@H](C)Oc1nc(N2CC3CCC(C2)N3)c2cc(Cl)c(-c3ccc(F)c4sc(N)nc34)c(F)c2n1 (stereo partly drawn) [Example E38]

[8.17, 8.32, 7.92]

###

Molecular target: GDP-loaded WT KRAS (Homo sapiens, UniProt P01116)
Sequence (P01116 1-188 isoform P01116-2): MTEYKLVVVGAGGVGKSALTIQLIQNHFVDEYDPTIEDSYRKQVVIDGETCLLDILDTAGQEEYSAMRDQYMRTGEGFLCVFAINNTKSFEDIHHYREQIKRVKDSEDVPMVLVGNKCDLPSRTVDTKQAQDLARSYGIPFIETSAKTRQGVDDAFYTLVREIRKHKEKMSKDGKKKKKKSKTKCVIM
Experiment: KRAS WT Probe Displacement Assay
Format: binding
Conditions: WT KRAS 3 nM, biotinylated probe 1 60 nM; read-out: KRAS WT Probe Displacement Assay IC50
So I've got a bunch of compounds here, and I need their pIC50 values.
Give bare numbers, as −log10 of the molar value.

compound="COCCNC1C[C@H]2CC[C@@H]1N2c1nc(OC[C@@]23CCCN2C[C@H](F)C3)nc2c(F)c(-c3ccc(F)c4sc(N)nc34)c(C(F)(F)F)cc12 (stereo partly drawn) [Example E58]" parameter_measured=pIC50 endpoint_value=8.12
compound="CCc1cc2c(N3CC4CCC(C3)N4)nc(OC[C@@]34CCCN3C[C@H](F)C4)nc2c(F)c1-c1ccc(F)c2sc(N)nc12 [Example E67]" parameter_measured=pIC50 endpoint_value=8.00

Consider the additional compound presented here.
Data request, read-out pIC50, for Cc1ccc(-c2c(C(F)(F)F)cc3c(N4CC5CCC(C4)N5)nc(OC[C@@]45CCCN4C[C@H](F)C5)nc3c2F)c2nc(N)sc12 [Example E73] 7.81

###

So I've got a bunch of compounds here, and I need their log10(IC50) values.
Biological target: GDP-loaded KRAS G12D (Homo sapiens, UniProt P01116, G12D)
Assay: KRAS G12D Probe Displacement Assay
Format: binding
Details: KRAS G12D 0.5 nM, biotinylated probe 2 4 nM; read-out: KRAS G12D Probe Displacement Assay IC50
Please note: log10 values; quantity IC50; unit nM.

Worked examples follow.
compound="CC(F)CNC1C[C@H]2CC[C@@H]1N2c1nc(OC[C@@]23CCCN2C[C@H](F)C3)nc2c(F)c(-c3ccc(F)c4sc(N)nc34)c(C(F)(F)F)cc12 (stereo partly shown)" parameter_measured=log10(IC50) endpoint_value=0.15
compound=Nc1nc2c(-c3c(C(F)(F)F)cc4c(N5CC6CCC(C5)N6)nc(OC[C@@]56CCCN5C[C@H](F)C6)nc4c3F)ccc(F)c2s1 parameter_measured=log10(IC50) endpoint_value=-0.44

The following compounds each have a reported value; give each one's log10(IC50).
1. CC1(N2CCCCC2)CN(c2nc(N3CC4CCC(C3)N4)c3cc(Cl)c(-c4ccc(F)c5sc(N)nc45)c(F)c3n2)C1
2. Nc1nc2c(-c3c(C(F)(F)F)cc4c(N5CC6CCC(C5)N6)nc(OC[C@@]56CCCN5C[C@H](F)C6)nc4c3F)ccc(Cl)c2s1
3. Cc1cc(N)nc(-c2c(F)cc3c(N4CC5CCC(C4)N5)nc(OC[C@@]45CCCN4C[C@H](F)C5)nc3c2F)c1C(F)(F)F
4. CN1CCCC1(C)COc1nc(N2CC3CCC(C2)N3)c2cc(Cl)c(-c3ccc(F)c4sc(N)nc34)c(F)c2n1 (stereo not shown)

[0.98, -0.89, 0.04, 0.41]

###

Molecular target: GDP-loaded KRAS G12D (Homo sapiens, UniProt P01116, G12D)
Assay: KRAS G12D Probe Displacement Assay
Format: binding
Conditions: KRAS G12D 0.5 nM, biotinylated probe 2 4 nM; read-out: KRAS G12D Probe Displacement Assay IC50
parameter-measured: IC50

Worked examples follow.
compound="CN(C)C(=O)CCOc1nc(N2CC3CCC(C2)N3)c2cc(Cl)c(-c3ccc(F)c4sc(N)nc34)c(F)c2n1 [Example E40]" endpoint_value="41 nM"
compound="CN1C[C@H](F)C[C@H]1COc1nc(N2CC3CCC(C2)N3)c2cc(C(F)(F)F)c(-c3ccc(F)c4sc(N)nc34)c(F)c2n1 [Example E51]" endpoint_value="1.1 nM"
compound="CN1C[C@H](F)CC1(C)COc1nc(N2CC3CCC(C2)N3)c2cc(Cl)c(-c3ccc(F)c4sc(N)nc34)c(F)c2n1 (stereo partly shown) [Example E89]" endpoint_value="2.4 nM"

Consider the additional compound presented here.
Data request, read-out IC50, for Cc1c(F)c(N)nc(-c2c(Cl)cc3c(N4CC5CCC(C4)N5)nc(OC[C@@]45CCCN4C[C@H](F)C5)nc3c2F)c1C(F)(F)F [Example E78] 0.99 nM

Source: patent US20240140957A1
